TGT: T1, IRF4 DBD WT (human, UniProt Q15306 21-130)
T1 sequence: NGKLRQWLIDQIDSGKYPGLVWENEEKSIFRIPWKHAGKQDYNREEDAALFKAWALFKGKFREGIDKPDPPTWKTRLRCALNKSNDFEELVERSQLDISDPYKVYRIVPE
EXPERIMENT_SUMMARY: SPR
Listing of entries alongside the reported Kd.
// note: answer is a bare numeric in nM

{"BINDER": "AICE1 (dsDNA) DNA 1: TAGTGCAGAAATGAGTCAGAGA DNA 2: TCTCTGACTCATTTCTGCACTA", "UNIT_TEXT": "nM", "Kd": 2800}

In: What measured Kd goes with ISRE (SPR) (dsDNA) DNA 1: CAACTGAAACCGAGAAAGC DNA 2: GCTTTCTCGGTTTCAGTTG ?
Out: 250

In: Moving on to the next binder: AICE2 (dsDNA) DNA 1: GAGGTTTCGGGATGACTAATACT DNA 2: AGTATTAGTCATCCCGAAACCTC
Out: 1380

In: Moving on to the next binder: EICE1 (dsDNA) DNA 1: TAAAAGGAAGTGAAACCAAG DNA 2: CTTGGTTTCACTTCCTTTTA
Out: 260

Where do these numbers come from? They come from paper PMC7913761.
